- assay overview: collision cross section of modified peptide (TIMS, N2, iRT-aligned); higher = larger / more extended gas-phase ion
- condition notes: charge state: 3; modification: hydroxyisobutyryl
measurement name: collision cross section (Å²)

>>> readout_value("GTVPDDAVEALADSLGKK [_GTVPDDAVEALADSLGK(hydroxyisobutyryl)K_]")
537.74
>>> readout_value("DSINFLDHINGKK [_DSINFLDHINGK(hydroxyisobutyryl)K_]")
468.17
>>> readout_value("FLQEFYQDDELGKK [_FLQEFYQDDELGK(hydroxyisobutyryl)K_]")
512.84
>>> readout_value("DTPTSAGPNSFNKGK [_DTPTSAGPNSFNK(hydroxyisobutyryl)GK_]")
443.44
>>> readout_value("SPSDSGYSYETIGKTTK [_SPSDSGYSYETIGK(hydroxyisobutyryl)TTK_]")
538.76
>>> readout_value("TEVLSPNSKVESK [_TEVLSPNSK(hydroxyisobutyryl)VESK_]")
455.3
>>> readout_value("GADFLVTEVENGGSLGSKK [_GADFLVTEVENGGSLGSK(hydroxyisobutyryl)K_]")
553.89
>>> readout_value("SLGEPAAGEGSAKR [_SLGEPAAGEGSAK(hydroxyisobutyryl)R_]")
485.86
>>> readout_value("DASTLQSQKAEGTGDAK [_DASTLQSQK(hydroxyisobutyryl)AEGTGDAK_]")
514.99
>>> readout_value("IVFSGNLFQHQEDSKK [_IVFSGNLFQHQEDSK(hydroxyisobutyryl)K_]")
534.25
>>> readout_value("LFVGGIKEDTEEHHLR [_LFVGGIK(hydroxyisobutyryl)EDTEEHHLR_]")
546.81
>>> readout_value("VGLQVVAVKAPGFGDNR [_VGLQVVAVK(hydroxyisobutyryl)APGFGDNR_]")
502.92
>>> readout_value("VFIGNLNTLVVKKK [_VFIGNLNTLVVK(hydroxyisobutyryl)KK_]")
515.31
>>> readout_value("VPTTEKPTVTVNFR [_VPTTEK(hydroxyisobutyryl)PTVTVNFR_]")
512.54
>>> readout_value("DTGEKLTVAENEAETK [_DTGEK(hydroxyisobutyryl)LTVAENEAETK_]")
520.27
>>> readout_value("TQDQISNIKYHEEFEK [_TQDQISNIK(hydroxyisobutyryl)YHEEFEK_]")
557.98
>>> readout_value("STGLELETPSLVPVKK [_STGLELETPSLVPVK(hydroxyisobutyryl)K_]")
511.71
>>> readout_value("PGGEGPQCEKTTDVK [_PGGEGPQCEK(hydroxyisobutyryl)TTDVK_]")
464.88
>>> readout_value("GTISAPGKVVTAAAQAK [_GTISAPGK(hydroxyisobutyryl)VVTAAAQAK_]")
524.07
>>> readout_value("KYEEIDNAPEER [_K(hydroxyisobutyryl)YEEIDNAPEER_]")
497.05
>>> readout_value("VYIASSSGSTAIKK [_VYIASSSGSTAIK(hydroxyisobutyryl)K_]")
511.39
>>> readout_value("DYSAPVNFISAGLKK [_DYSAPVNFISAGLK(hydroxyisobutyryl)K_]")
536.52
>>> readout_value("VETTVTSLKTK [_VETTVTSLK(hydroxyisobutyryl)TK_]")
450.94
>>> readout_value("LGNDFHTNKR [_LGNDFHTNK(hydroxyisobutyryl)R_]")
448.25
>>> readout_value("VGTASVLQPVKK [_VGTASVLQPVK(hydroxyisobutyryl)K_]")
413.48
>>> readout_value("VQGGALEDSQLVAGVAFKK [_VQGGALEDSQLVAGVAFK(hydroxyisobutyryl)K_]")
565.17
>>> readout_value("VNVEAPDVNLEGLGGKLK [_VNVEAPDVNLEGLGGK(hydroxyisobutyryl)LK_]")
550.67
>>> readout_value("GEVGAGAGPGAQAGPSAKR [_GEVGAGAGPGAQAGPSAK(hydroxyisobutyryl)R_]")
486.12
>>> readout_value("LQDVSGQLSSSKK [_LQDVSGQLSSSK(hydroxyisobutyryl)K_]")
470.99
>>> readout_value("IINEPTAAAIAYGLDKK [_IINEPTAAAIAYGLDK(hydroxyisobutyryl)K_]")
564.39
>>> readout_value("VFIGNLNTLVVKK [_VFIGNLNTLVVK(hydroxyisobutyryl)K_]")
490.45
>>> readout_value("SLEEEGAAHSGKR [_SLEEEGAAHSGK(hydroxyisobutyryl)R_]")
479.68
>>> readout_value("YEQEHAAIQDKLFQVAK [_YEQEHAAIQDK(hydroxyisobutyryl)LFQVAK_]")
519.87
>>> readout_value("ANLEKAQAELVGTADEATR [_ANLEK(hydroxyisobutyryl)AQAELVGTADEATR_]")
579.16
>>> readout_value("VDVEVPDVSLEGPEGKLK [_VDVEVPDVSLEGPEGK(hydroxyisobutyryl)LK_]")
549.45
>>> readout_value("DAEAAEATAEGALKAEK [_DAEAAEATAEGALK(hydroxyisobutyryl)AEK_]")
547.8
>>> readout_value("PANEKATDDYHYEK [_PANEK(hydroxyisobutyryl)ATDDYHYEK_]")
509.04
>>> readout_value("VGIDTPDIDIHGPEGKLK [_VGIDTPDIDIHGPEGK(hydroxyisobutyryl)LK_]")
542.95
